- Test system: HTT
- Procedure text: HiBiT protein abundance assay, HTT (K562 HiBiT knock-in)
- Format: cell-based, human
- Experimental setup: HiBiT knock-in K562 cells, 24 hours, top dose 10 μM
pIC50: −log10 of the molar value. Where a name gives a salt, the structure may show the parent alone.
Value type: pIC50

// below: answered compounds
CN1CCC2(CC1)CCN2c1ccc2nc(-c3cc4cn(C)nc4cc3O)ccc2n1 ... 5.00 to 6.00
Cn1cc2cc(-c3ccc4nc(N5CC[C@H](NC6CCC6)C5)ccc4n3)c(O)c(F)c2n1 (single isomer, unassigned) ... > 7.00
COc1cc2nc(C)oc2cc1-c1ccc2nc(N3CCC(NC(C)(C)C)C3)ccc2n1 (stereo not shown) ... 5.00 to 6.00

Note down pIC50 recorded for CNC(=O)c1nc(-c2cc3cn(C)nc3cc2O)nc2ccc(N3C[C@H](C)N[C@@H](C)C3)cc12 (single isomer, unassigned)
6.00 to 7.00

Identify pIC50 associated with the compound CN[C@@H]1CCN(c2ccc3nc(-c4cc5cn(C)nc5c(F)c4O)nc(C4CC4)c3c2)C1
> 7.00

Supply reported pIC50 belonging to this compound: CC(C)N[C@@H]1CCN(c2ccc3nc(-c4cc5cn(C)nc5c(F)c4O)ccc3n2)C1 (single isomer, unassigned)
> 7.00

Provide only the value of recorded pIC50 for C[C@@H]1CN(c2cc(F)c3nc(-c4cc5cn(C)nc5c(F)c4O)ccc3c2)C[C@H](C)N1 [Compound 763, hydrochloride]
> 7.00

----------
- Tested on: MYB mRNA
- Procedure text: RT-qPCR splicing assay, MYB mRNA canonical (CJ) and alternative (AJ) junction
- Assay type: cell-based, human
- Experimental setup: Homo sapiens, MYB canonical junction mRNA, RT-qPCR; read-out: MYB CJ (decrease in CJ mRNA levels, IC50)
pIC50: −log10 of the molar value. Where a name gives a salt, the structure may show the parent alone.
Recorded pIC50 for the following compounds

The following compounds have reported results that may help.
Cn1cc2cc(-c3ccc4nc(N5CC(NC(C)(C)C)C5)ccc4n3)c(O)cc2n1 ... 5.00 to 6.00
Cc1nc2c(C)c(O)c(-c3ccc4nc(N5CC[C@@H](NC6CC6)C5)ccc4n3)cc2o1 ... > 7.00
Cc1c(O)c(-c2nc(-c3c[nH]nn3)c3cc(N4CCNCC4)ccc3n2)cc2cn(C)nc12 [Compound 538, hydrochloride] ... 5.00 to 6.00
Cn1cc2cc(-c3ccc4nc(N5CC[C@H](N[C@H]6C[C@H](F)C6)C5)ccc4n3)c(O)c(F)c2n1 (single isomer, unassigned) ... > 7.00
CN[C@H]1CCN(c2ccc3nc(-c4cc5cn(C)nc5cc4O)ccc3n2)C1 ... 6.00 to 7.00
Cc1c(O)c(-c2ccc3nc(N4CC[C@@H](NCC5CC5)C4)ccc3n2)cc2cn(C)nc12 (single isomer, unassigned) ... > 7.00

Now let's try a different one.
Quickly give me recorded pIC50 for C[C@@H]1CN(c2ccc3nc(-c4cc5cn(C)nc5cc4O)ncc3c2)C[C@H](C)N1 [Compound 751, hydrochloride]
6.00 to 7.00

----------
pIC50 overview
- Test system: Target C
- Procedure text: RT-qPCR canonical junction panel assay, Target C mRNA
- Format: cell-based
- Experimental setup: Table 4, read-out: Target C IC50 (decrease in CJ mRNA levels)
pIC50: −log10 of the molar value.

CNC(=O)c1nc(-c2cc3cn(C)nc3c(C)c2O)nc2ccc(N3CCC(N4CCC4)CC3)cc12 ... < 5.00
CN[C@@H]1CCN(c2ccc3nc(-c4cc5cn(C)nc5c(C)c4O)ncc3n2)C1 (single isomer, unassigned) ... 5.00 to 6.00
Cc1nc2c(C)c(O)c(-c3ccc4cc(N5CC[C@H](NC6CC6)C5)ncc4n3)cc2o1 ... 6.00 to 7.00
C[C@@H]1CN(c2ccc3nc(-c4cc5cn(C)nc5c(F)c4O)nc(C(N)=O)c3c2)C[C@H](C)N1 ... < 5.00
Cc1c(O)c(-c2ncc3nc([C@H]4CCNC4)ccc3n2)cc2cn(C)nc12 ... < 5.00
Cc1nc2c(C)c(O)c(-c3ccc4nc(N5CC[C@@H](NC6CC6)C5)ccc4n3)cc2o1 ... > 7.00
Cn1cc2cc(-c3ccc4nc(N5CCC(NC67CC(O)(C6)C7)C5)ccc4n3)c(O)cc2n1 (stereo not drawn) ... 6.00 to 7.00
Cn1cc2cc(-c3ncc4cc(N5CCC(N6CCC6)CC5)ccc4n3)c(O)cc2n1 ... 5.00 to 6.00

Hello, please tell me recorded pIC50 for this one: Cc1cc2nc(-c3cc4cn(C)nc4c(C)c3O)cc(Cl)c2cc1N1CCNCC1
5.00 to 6.00

Fill in pIC50 for record C[C@H]1CN(c2ccc3nc(-c4cc5cn(C)nc5cc4O)ncc3c2)C[C@H](C)N1
< 5.00

Using the record for CC(C)NC1CCN(c2ccc3nc(-c4cc5cn(C)nc5c(F)c4O)ccc3n2)C1 (stereo not drawn) , state its measured pIC50.
> 7.00

Retrieve pIC50 measured for Cc1c(O)c(-c2ncc3cc(N4C[C@H](C)N[C@@H](C)C4)ccc3n2)cc2cn(C)nc12 and print it.
5.00 to 6.00

Name the recorded pIC50 of the compound listed here: Cc1nc2c(C)c(O)c(-c3ccc4nc(N5CCC(NC(C)C)C5)ccc4n3)cc2o1 (stereo not drawn)
> 7.00

Query pIC50 for Cc1nc2cc(O)c(-c3ccc4nc(N5CCNCC5)ccc4n3)cc2o1
5.00 to 6.00

Quickly give me recorded pIC50 for CC(C)N[C@H]1CCN(c2ccc3nc(-c4cc5cn(C)nc5c(F)c4O)ccc3n2)C1 (single isomer, unassigned)
> 7.00

Determine from records and report pIC50 for Cn1cc2cc(-c3ccc4nc([C@H]5CCNC6(CC6)C5)ccc4n3)c(O)cc2n1 (single isomer, unassigned)
6.00 to 7.00

----------
- Tested on: HTT
- Procedure text: HiBiT protein abundance assay, HTT (K562 HiBiT knock-in)
- Format: cell-based, human
- Experimental setup: HiBiT knock-in K562 cells, 24 hours, top dose 10 μM
pIC50: −log10 of the molar value.
Quick reference for pIC50 among some compounds

Give measured pIC50 for CN[C@@H]1CCN(c2cc3c(Cl)cc(-c4cc5cn(C)nc5c(C)c4O)nc3cc2C)C1 (HTT).
< 5.00

----------
Listed here: items and their measured IC50.
- Test system: HTT mRNA
- Procedure text: RT-qPCR splicing assay, HTT mRNA canonical (CJ) and alternative (AJ) junction
- Assay type: cell-based, human
- Experimental setup: Homo sapiens, HTT canonical junction mRNA, RT-qPCR; read-out: HTT CJ (decrease in CJ mRNA levels, IC50)

For HTT mRNA, give the measured IC50 of the entry Cc1c(O)c(-c2ncc3nc([C@@H]4CCNC4)ccc3n2)cc2cn(C)nc12 (single isomer, unassigned)
1 to 10 µM

Check HTT mRNA data and give IC50 for Cc1nc2c(C)c(O)c(-c3ccc4nc(N5CC[C@@H](NC6CCC6)C5)ccc4n3)cc2o1 .
< 0.1 µM

Look up and report measured IC50 (HTT mRNA) for the following compound: Cc1nc2cc(O)c(-c3ccc4cc(N5CC[C@@H](NC(C)(C)C)C5)ncc4n3)cc2o1
0.1 to 1 µM

// output IC50; input CNC(=O)c1nc(-c2cc3cn(C)nc3c(F)c2O)nc2ccc(N3C[C@@H](C)N[C@@H](C)C3)cc12 ; system HTT mRNA
< 0.1 µM

Lab note: record IC50 of CC(C)N[C@H]1CCN(c2ccc3nc(-c4cc5cn(C)nc5cc4O)ccc3n2)C1 tested on HTT mRNA.
< 0.1 µM

# return IC50 of CCNC(=O)c1nc(-c2cc3cn(C)nc3c(C)c2O)nc2ccc(N3C[C@@H](C)N[C@@H](C)C3)cc12 (system: HTT mRNA)
< 0.1 µM

Report IC50 on HTT mRNA for this entry: Cc1c(O)c(-c2nc(C(=O)NC3CCC3)c3cc(N4C[C@@H](C)N[C@@H](C)C4)ccc3n2)cc2cn(C)nc12
1 to 10 µM

----------
- System: HTT mRNA
- Procedure text: RT-qPCR splicing assay, HTT mRNA canonical (CJ) and alternative (AJ) junction
- Assay type: cell-based, human
- Experimental setup: Homo sapiens, HTT canonical junction mRNA, RT-qPCR; read-out: HTT CJ (decrease in CJ mRNA levels, IC50)
Value type: IC50

These solved cases illustrate the format of a correct answer.
Cc1c(O)c(-c2ccc3cc(N4CCNCC4)cc(F)c3n2)cc2cn(C)nc12 ... < 100 nM
CNC(=O)c1nc(-c2cc3cn(C)nc3c(F)c2O)nc2ccc(N3CCC(N4CCC4)CC3)cc12 ... < 100 nM
Cc1nc2cc(O)c(-c3ccc4nc(N5CC[C@@H](NC6(CF)CC6)C5)ccc4n3)cc2o1 (single isomer, unassigned) ... < 100 nM
COc1cc2nn(C)cc2cc1-c1ccc2cc(C3CCNCC3)c(F)cc2n1 ... > 10000 nM
CN1CCC(c2ccc3nc(-c4cc5cn(C)nc5cc4O)ccc3n2)CC1 ... 100 to 1000 nM
CC1CN(c2ccc3nc(-c4cc5cn(C)nc5cc4O)ccc3n2)CCN1 (centres unmarked) ... 1000 to 10000 nM
Cc1nc2c(C)c(O)c(-c3ccc4nc(N5CCC(NCC6CC6)C5)ccc4n3)cc2o1 (centres unmarked) ... < 100 nM

// next entry
Write IC50 of Cc1c(O)c(-c2ccc3nc(N4CCC(NC5(CF)CC5)C4)ccc3n2)cc2cn(C)nc12 (centres unmarked) ; system used: HTT mRNA
< 100 nM
